Molecular target: human TAS2R1 (Homo sapiens, UniProt Q9NYW7)
Construct: expressed in transfected cells; host or cells: HEK293T-Gα16gust44
Sequence (Q9NYW7 whole entry): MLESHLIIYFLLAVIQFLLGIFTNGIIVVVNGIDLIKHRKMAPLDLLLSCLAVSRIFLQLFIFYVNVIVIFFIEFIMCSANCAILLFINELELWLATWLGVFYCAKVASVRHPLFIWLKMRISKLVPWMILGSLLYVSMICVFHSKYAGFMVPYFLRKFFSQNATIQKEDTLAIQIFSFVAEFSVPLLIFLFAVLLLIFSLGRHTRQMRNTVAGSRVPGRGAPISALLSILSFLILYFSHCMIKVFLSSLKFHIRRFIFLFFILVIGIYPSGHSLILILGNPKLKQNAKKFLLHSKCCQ
Experiment: Calcium imaging assay (FLIPR), HEK293T-Gα16gust44 cells transfected with human TAS2R1
Format: cell-based
Conditions: calcium trace, sheet TAS2R1; Time 329.562 s
Experimental: This set of bile acids was chosen because of their commercial availability in high purities, their diversity within the class of bile acids and their previous detection and quantitation in human blood. Stock solutions were prepared in DMSO. […] Measured data were negative control corrected by subtracting the signal of the mock-transfected cells and exported to Microsoft Excel using the FLIPR software ScreenWorks 4.2. […]
observation.type: RLU (RLU)
Your answer is read as RLU, so omit the unit and give the number.

IN: Which RLU value is on record for C[C@H](CCC(=O)O)[C@H]1CC[C@H]2[C@@H]3[C@H](O)C[C@@H]4C[C@H](O)CC[C@]4(C)[C@H]3CC[C@]12C [Chenodeoxycholic Acid, chenodeoxycholic acid] ?
OUT: 121.3

IN: Given the molecule C[C@H](CCC(=O)O)[C@H]1CC[C@H]2[C@@H]3[C@@H](O)C[C@@H]4C[C@H](O)CC[C@]4(C)[C@H]3CC[C@]12C [Ursodeoxycholic Acid, ursodeoxycholic acid] , what is its reported RLU?
OUT: -25.1818

IN: Would you kindly share the measured RLU for C[C@H](CCC(=O)O)[C@H]1CC[C@H]2[C@@H]3CC[C@@H]4C[C@H](O)CC[C@]4(C)[C@H]3CC[C@]12C [Lithocholic Acid, lithocholic acid] ?
OUT: 210.072

IN: Any idea what its RLU is? The molecule is C[C@H](CCC(=O)O)[C@H]1CC[C@H]2[C@@H]3[C@H](O)C[C@@H]4C[C@H](O)CC[C@]4(C)[C@H]3C[C@H](O)[C@]12C [Cholic Acid, cholic acid]
OUT: -32.4678

The reported numbers originate from paper PMC10247784.
